System Under Test: CDK9 (Homo sapiens)
Construct: endogenous in cells; host or cells: MDA-MB-231
Sequence (P50750 whole entry): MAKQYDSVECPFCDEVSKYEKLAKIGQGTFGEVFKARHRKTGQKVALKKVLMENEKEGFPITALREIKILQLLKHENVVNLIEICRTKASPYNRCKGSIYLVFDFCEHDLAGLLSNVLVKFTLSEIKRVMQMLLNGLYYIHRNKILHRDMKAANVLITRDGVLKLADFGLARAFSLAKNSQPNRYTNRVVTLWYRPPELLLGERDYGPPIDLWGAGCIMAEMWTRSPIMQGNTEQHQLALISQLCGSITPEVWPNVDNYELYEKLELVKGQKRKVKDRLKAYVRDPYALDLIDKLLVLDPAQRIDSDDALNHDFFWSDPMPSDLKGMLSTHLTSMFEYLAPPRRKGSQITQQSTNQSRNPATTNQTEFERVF
Experimental Details: CDK protein degradation activity (Western blotting), CDK9
Type: cell-based
Measurement Setup: MDA-MB-231 cells, 1 μM, 16 hours, Western blot
Procedure: In order to evaluate the CDK protein degradation activity of the compounds according to the present invention, the following experiment was conducted. MDA-MB-231 cells were seeded at 5×10^5 cells per well in a 6-well plate. The next day, the compounds were treated in each well to achieve final concentrations of 100 nM, 1 μM, and 10 μM. […] Cell lysates were quantified and separated by size using sodium dodecyl sulfate-polyacrylamide gel electrophoresis (SDS-PAGE). […]
Field: Enzyme degradation CDK9 (% remaining) @ 1 μM. Provide a value for each of the molecules that follow.
Use % as the unit, but write only the number.

In plain terms, O=C1CC[C@H](N2C(=O)c3cccc(OCC(=O)N4CCC(CC(=O)N5CCN(c6ccc(Nc7ncnc8c7ncn8C7CC(NC(=O)Cc8ccccc8)C7)cc6)CC5)CC4)c3C2=O)C(=O)N1 (stereo partly shown) has a documented Enzyme degradation CDK9 (% remaining) @ 1 μM of 30

In plain terms, `O=C1CC[C@H](n2nnc3ccc(N4CCC(N5CCN(c6ccc(Nc7ncnc8c7ncn8[C@H]7C[C@@H](NC(=O)Cc8ccccc8)C7)cc6)CC5)CC4)cc3c2=O)C(=O)N1` has a documented Enzyme degradation CDK9 (% remaining) @ 1 μM of 10

---

Field: Enzyme degradation CDK9 (% remaining) @ 10 μM. Provide a value for each of the compounds that follow.
System Under Test: CDK9 (Homo sapiens)
Construct: endogenous in cells; host or cells: MDA-MB-231
Experimental Details: CDK protein degradation activity (Western blotting), CDK9
Type: cell-based
Measurement Setup: MDA-MB-231 cells, 10 μM, 16 hours, Western blot

In plain terms, Cc1cccc(C(=O)NC2CC(n3cnc4c(NCc5cccc(N6CCN(CC7CCN(C(=O)CNc8ccc9c(c8)C(=O)N([C@H]8CCC(=O)NC8=O)C9=O)CC7)CC6)c5)ncnc43)C2)n1 (some centres unmarked) has a documented Enzyme degradation CDK9 (% remaining) @ 10 μM of 0/0/0%

In plain terms, O=C1CC[C@H](n2nnc3ccc(N4CCC(CCN5CCN(c6ccc(Nc7ncnc8c7ncn8C7CC(NC(=O)Cc8ccccc8)C7)cc6)CC5)CC4)cc3c2=O)C(=O)N1 (some centres unmarked) has a documented Enzyme degradation CDK9 (% remaining) @ 10 μM of 0/0/0%

In plain terms, `O=C1CC[C@@H](c2ccc(OCC(=O)N3CCC(CCN4CCN(c5ccc(Nc6ncnc7c6ncn7[C@H]6C[C@@H](NC(=O)c7cccc(C(F)(F)F)n7)C6)cc5)CC4)CC3)cc2)C(=O)N1` has a documented Enzyme degradation CDK9 (% remaining) @ 10 μM of 10/10/10%

In plain terms, O=C1CCC(N2C(=O)c3cccc(NCC(=O)N4CC(N5CCC6(CC5)CC(N5CCN(c7ccc(Nc8ncnc9c8ncn9[C@H]8C[C@@H](NC(=O)Cc9ccccc9)C8)cc7)CC5)C6)C4)c3C2=O)C(=O)N1 (some centres unmarked) has a documented Enzyme degradation CDK9 (% remaining) @ 10 μM of 0/0/0%

In plain terms, `O=C1CC[C@H](n2nnc3ccc(N4CCC5(CC4)CC(N4CCN(c6ccc(Nc7ncnc8c7ncn8[C@H]7C[C@@H](NC(=O)c8c(Cl)cccc8Cl)C7)cc6)CC4)C5)cc3c2=O)C(=O)N1` has a documented Enzyme degradation CDK9 (% remaining) @ 10 μM of 0/0/0%
